The following compounds are shown together with reported inhibition of SARS-CoV-2 cytopathic effect values.
system: Vero E6 infected with SARS-CoV-2; test: inhibition of SARS-CoV-2 cytopathic effect; higher = more antiviral protection, active = above 15; conditions: 1 nM; 48 h
Could you give me the number in %? Just the number is fine.

Would you please look over these solved cases?
O=C(O)C[C@H](O)C(=O)O ... -0.21
COCCOc1cnc2ccn([C@H](C)c3nnc4c(F)cc(-c5cnn(C)c5)cn34)c(=O)c2c1 ... -0.43
CC(C)N[C@H]1CCn2c(=O)[nH]c3cccc(c32)[C@@H]1O ... 0.575
C=C1/C(=C\C=C2/CCC[C@]3(C)[C@@H]([C@H](C)/C=C/C=C/C(O)(CC)CC)CC[C@@H]23)C[C@@H](O)C[C@@H]1O ... -3.06
Nc1ccc(S(=O)(=O)Nc2nccs2)cc1 ... 1.78

Proceed to the following item.
query: I am curious: what inhibition of SARS-CoV-2 cytopathic effect value has been reported for `CCCC[C@H]1C(=O)N(c2ccccc2)N(c2ccc(O)cc2)C1=O` ?
result: 0.53
